Each recorded value in this set is attributed to patent US20180355059A1.

# system: T1, recombinant human PCSK9 protein, His-tagged (Immunogen A, hPCSK9-His) (human, UniProt Q8NBP7 31-692, limits assumed, biotin-labelled in the ELISA and blocking assays (Biotin labeling kit))
# T1 construct: also called human PCSK9-His; recombinant hPCSK9-His; not shown: His tag
# protocol: ELISA, biotin-hPCSK9-His on streptavidin plate; antibody 6.67 nM

binder	OD450 nm (OD450 nm)
103C11E8, chimeric anti-PCSK9 mAb purified from hybridoma (antibody, V domains shown, From Harbour H2L2 mice: human variable regions, rat constant regions) VH: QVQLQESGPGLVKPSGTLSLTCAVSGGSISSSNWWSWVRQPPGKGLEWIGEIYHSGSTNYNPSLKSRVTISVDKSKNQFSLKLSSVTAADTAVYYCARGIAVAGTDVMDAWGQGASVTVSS VL: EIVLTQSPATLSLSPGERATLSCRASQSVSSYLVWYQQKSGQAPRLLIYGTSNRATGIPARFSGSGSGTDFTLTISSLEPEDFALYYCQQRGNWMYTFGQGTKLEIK	2.71
139G1C5, chimeric anti-PCSK9 mAb purified from hybridoma (antibody, V domains shown, From Harbour H2L2 mice: human variable regions, rat constant regions) VH: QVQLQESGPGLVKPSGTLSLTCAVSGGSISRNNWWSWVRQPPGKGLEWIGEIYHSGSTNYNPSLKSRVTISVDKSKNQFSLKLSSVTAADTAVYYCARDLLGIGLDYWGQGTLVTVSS VL: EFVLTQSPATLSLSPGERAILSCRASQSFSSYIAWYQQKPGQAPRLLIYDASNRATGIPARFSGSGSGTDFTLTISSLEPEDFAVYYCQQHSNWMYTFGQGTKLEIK	2.94
76A1B11, chimeric anti-PCSK9 mAb purified from hybridoma (antibody, V domains shown, From Harbour H2L2 mice: human variable regions, rat constant regions) VH: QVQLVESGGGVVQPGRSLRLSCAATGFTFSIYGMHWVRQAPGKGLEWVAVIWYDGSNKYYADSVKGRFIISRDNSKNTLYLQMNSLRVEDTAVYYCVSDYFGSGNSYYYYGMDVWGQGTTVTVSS VL: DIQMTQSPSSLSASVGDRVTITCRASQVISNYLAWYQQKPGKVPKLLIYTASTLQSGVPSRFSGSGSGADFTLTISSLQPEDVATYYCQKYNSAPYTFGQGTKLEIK	2.85
152G2F7, chimeric anti-PCSK9 mAb purified from hybridoma (antibody, V domains shown, From Harbour H2L2 mice: human variable regions, rat constant regions) VH: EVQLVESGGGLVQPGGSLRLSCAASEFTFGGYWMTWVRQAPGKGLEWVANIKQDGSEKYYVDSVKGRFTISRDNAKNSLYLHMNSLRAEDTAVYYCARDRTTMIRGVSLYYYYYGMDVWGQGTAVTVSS VL: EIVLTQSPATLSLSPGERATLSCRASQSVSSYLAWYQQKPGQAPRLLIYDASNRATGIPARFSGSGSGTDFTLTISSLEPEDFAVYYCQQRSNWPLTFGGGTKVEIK	2.91
74C10A8, chimeric anti-PCSK9 mAb purified from hybridoma (antibody, V domains shown, From Harbour H2L2 mice: human variable regions, rat constant regions) VH: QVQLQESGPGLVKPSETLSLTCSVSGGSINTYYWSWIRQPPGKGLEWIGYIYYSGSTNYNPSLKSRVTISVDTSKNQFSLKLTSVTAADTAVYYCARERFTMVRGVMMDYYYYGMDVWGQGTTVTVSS VL: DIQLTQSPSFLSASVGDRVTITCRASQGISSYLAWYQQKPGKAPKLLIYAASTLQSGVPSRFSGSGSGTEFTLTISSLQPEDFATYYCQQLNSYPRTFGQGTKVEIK	2.99
